The measurements presented in this section are drawn from the supplement of paper PMC12042874.

test: amyloid nucleation score (Sup35N fusion, yeast selection) (log enrichment); library NNK3; higher = more nucleation; inactive = no reads after selection;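 also: zero at mode of non-aggregating sequences after 7 days selection at 30°C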
EXPERIMENTAL_READOUT: amyloid nucleation score

Example cases with answers are listed next.
{"SUBSTANCE": "RRAMIGIFSITVRFADNGWK", "amyloid nucleation score": "inactive"}
{"SUBSTANCE": "GLMERNDMSEYSSAG", "amyloid nucleation score": "inactive"}
{"SUBSTANCE": "PRLTFSVVVRFCIHTLCLLK", "amyloid nucleation score": "inactive"}
{"SUBSTANCE": "NLFSRIVHSGLRMSTNCILI", "amyloid nucleation score": "inactive"}
{"SUBSTANCE": "VGRRDN", "amyloid nucleation score": "inactive"}
{"SUBSTANCE": "ERIVPA", "amyloid nucleation score": "inactive"}

// for each substance below, give its amyloid nucleation score
1. KNDGKEF
2. MYPYAITVTGMFLLVPSCLD
3. VTNSFSIFSGIIVHSTSLMV
4. IKIMHLSQPMDSMSLLHHG
5. VQFMMYVGTGIGAVGSGVNY
6. SWLNKIAKVIST
7. PSSLKYSKRVLSVSIHWERL

[reply]
inactive
inactive
0.032
inactive
1.53
inactive
inactive

// for each substance below, give its amyloid nucleation score
1. KLRCNTIKGFCSHKTRMGRT
2. FFVLLLFVRVYKIALNFMMG
3. LIRHFNKRVTSCNVVLLYNG
4. LAIYTVRSQFKVMCGVQSIR
5. MKFVPHYEGVYCL
6. QFYGLHMAFGKQVNALYTGH
7. STYLMSFVLYWLWQRSLDTC

[reply]
1: inactive; 2: inactive; 3: inactive; 4: 0.85; 5: inactive; 6: inactive; 7: inactive

// for each substance below, give its amyloid nucleation score
1. PELLEHYMSHF
2. DPFVRDIWQREYQWES
3. FPYSKIRCLCDGRNDRLGGL

[reply]
1. inactive
2. inactive
3. -0.043

// for each substance below, give its amyloid nucleation score
1. DHQLSGGDGVGSMYSTEGKL
2. NREHMAISSCRLVKHCFFWT
3. IFYVCRIIWCTERQVGKLGL
4. FHMFYRFSGDNGPKKFH
5. RCMIVASFYLSLIWKI

[reply]
1: inactive; 2: inactive; 3: inactive; 4: 0.607; 5: inactive

// for each substance below, give its amyloid nucleation score
1. YLRGVFLRYGG
2. NGYLACSPFS
3. IKPCGCSVLDIRT
4. SPVVIRFTLLIKCRWLVVWI
5. YSSVTTIVVPSLNAYILNCR
6. IVRLFLDVSSVTGHIWARCL

[reply]
1: inactive; 2: inactive; 3: inactive; 4: inactive; 5: inactive; 6: inactive

// for each substance below, give its amyloid nucleation score
1. FQSHLNIVIVYIRLNYTVLL
2. VRIFSTVEKASP
3. LLLDNITLGLWEFIRYRCGW

[reply]
1: -0.394; 2: inactive; 3: inactive
